test system: KM12 colon; assay: NCI tumour cell line growth inhibition, 384-well format
measured.endpoint: TGI (µM)

>>> measured_number("COc1cc2c(cc1OC(C)C)[C@H](c1ccc(Cl)cc1)N(c1ccc(N(C)CC3CCC(N4CCN(C)C(=O)C4)CC3)cc1)C(=O)C2 (some centres undefined)")
3.35
>>> measured_number("CCOC(=O)C1=CCCC[C@H]1S(=O)(=O)Nc1ccc(F)cc1Cl")
48.4

====

// reported GI50 for each item listed
test system: IGROV1 ovarian; assay: NCI tumour cell line growth inhibition, 384-well format
measured.endpoint: GI50

>>> result("NS(=O)(=O)OC[C@H]1C[C@@H](Nc2ccnc3cc(-c4cccc(SC(F)(F)F)c4)nn23)[C@H](O)[C@@H]1O")
"15.1 nM"
>>> result("Cc1c(C)n(CCCN2CCN(C)CC2)c2ccc(Oc3cccc(C(=O)N4CCN(CCc5ccc(F)cc5)CC4)c3)cc12")
"1580 nM"
>>> result("Cc1cc2c(C(=O)NC[C@H](C)c3ccccc3)c(O)c(O)cc2c(O)c1-c1c(C)cc2c(C(=O)NC[C@H](C)c3ccccc3)c(O)c(O)cc2c1O")
"495 nM"
>>> result("CNC(=O)c1ccc(N2C(=S)N(c3cnc(C#N)c(C(F)(F)F)c3)C(=O)C23CCC3)cc1F")
"> 100000 nM"
>>> result("CNC(=O)c1c(C)oc2cc(Oc3ncnc4cc(OC)c(OC)cc34)ccc12")
"> 100000 nM"

====

test system: UACC-257 melanoma; experiment: NCI tumour cell line growth inhibition, 384-well format
measured.endpoint: TGI

>>> result("CNC(=O)c1c(C)oc2cc(Oc3ncnc4cc(OC)c(OC)cc34)ccc12")
"> 100000 nM"
>>> result("COc1cc2c(cc1OC(C)C)[C@H](c1ccc(Cl)cc1)N(c1ccc(N(C)CC3CCC(N4CCN(C)C(=O)C4)CC3)cc1)C(=O)C2 (some centres undefined)")
"2640 nM"
>>> result("NS(=O)(=O)OC[C@H]1C[C@@H](Nc2ccnc3cc(-c4cccc(SC(F)(F)F)c4)nn23)[C@H](O)[C@@H]1O")
"28.6 nM"
>>> result("Cc1cc2c(C(=O)NC[C@H](C)c3ccccc3)c(O)c(O)cc2c(O)c1-c1c(C)cc2c(C(=O)NC[C@H](C)c3ccccc3)c(O)c(O)cc2c1O")
"3570 nM"

====

tested on: HT29 colon; experiment: NCI tumour cell line growth inhibition, 384-well format
measured.endpoint: TGI (µM)

>>> measured_number("NS(=O)(=O)OC[C@H]1C[C@@H](Nc2ccnc3cc(-c4cccc(SC(F)(F)F)c4)nn23)[C@H](O)[C@@H]1O")
0.222
>>> measured_number("COc1cc2c(cc1OC(C)C)[C@H](c1ccc(Cl)cc1)N(c1ccc(N(C)CC3CCC(N4CCN(C)C(=O)C4)CC3)cc1)C(=O)C2 (some centres undefined)")
3.22
>>> measured_number("Cc1cc2c(C(=O)NC[C@H](C)c3ccccc3)c(O)c(O)cc2c(O)c1-c1c(C)cc2c(C(=O)NC[C@H](C)c3ccccc3)c(O)c(O)cc2c1O")
3.83

====

// reported TGI for each item listed
tested on: SNB-19 CNS; test: NCI tumour cell line growth inhibition, 384-well format
measured.endpoint: TGI

>>> result("CNC(=O)c1c(C)oc2cc(Oc3ncnc4cc(OC)c(OC)cc34)ccc12")
"> 100 µM"
>>> result("CCOC(=O)C1=CCCC[C@H]1S(=O)(=O)Nc1ccc(F)cc1Cl")
"79.9 µM"
>>> result("NS(=O)(=O)OC[C@H]1C[C@@H](Nc2ccnc3cc(-c4cccc(SC(F)(F)F)c4)nn23)[C@H](O)[C@@H]1O")
"0.0207 µM"
>>> result("Cc1cc2c(C(=O)NC[C@H](C)c3ccccc3)c(O)c(O)cc2c(O)c1-c1c(C)cc2c(C(=O)NC[C@H](C)c3ccccc3)c(O)c(O)cc2c1O")
"1.44 µM"
>>> result("CNC(=O)c1ccc(N2C(=S)N(c3cnc(C#N)c(C(F)(F)F)c3)C(=O)C23CCC3)cc1F")
"> 100 µM"

====

tested on: COLO 205 colon; assay: NCI tumour cell line growth inhibition, 384-well format; in the data active = GI50 below about 0.43 µM; inactive = the rest
Possible outcomes: active, inactive

>>> class_assignment("CN[C@H]1CN(c2ccc3c(=O)c(C(=O)O)cn(-c4nccs4)c3n2)C[C@@H]1OC")
"active"
>>> class_assignment("CNC(=O)c1ccc(N2C(=S)N(c3cnc(C#N)c(C(F)(F)F)c3)C(=O)C23CCC3)cc1F")
"inactive"
>>> class_assignment("COc1cc2c(cc1OC(C)C)[C@H](c1ccc(Cl)cc1)N(c1ccc(N(C)CC3CCC(N4CCN(C)C(=O)C4)CC3)cc1)C(=O)C2 (some centres undefined)")
"inactive"
>>> class_assignment("CCOC(=O)C1=CCCC[C@H]1S(=O)(=O)Nc1ccc(F)cc1Cl")
"inactive"

====

// reported TGI for each item listed
tested on: NCI/ADR-RES ovarian; assay: NCI tumour cell line growth inhibition, 384-well format
measured.endpoint: TGI

>>> result("CNC(=O)c1ccc(N2C(=S)N(c3cnc(C#N)c(C(F)(F)F)c3)C(=O)C23CCC3)cc1F")
"> 100 µM"
>>> result("CC(C)C[C@H](NC(=O)CNC(=O)c1cc(Cl)ccc1Cl)B(O)O")
"0.781 µM"
>>> result("CNC(=O)c1c(C)oc2cc(Oc3ncnc4cc(OC)c(OC)cc34)ccc12")
"> 100 µM"
>>> result("CCOC(=O)C1=CCCC[C@H]1S(=O)(=O)Nc1ccc(F)cc1Cl")
"39.4 µM"
>>> result("COc1cc2c(cc1OC(C)C)[C@H](c1ccc(Cl)cc1)N(c1ccc(N(C)CC3CCC(N4CCN(C)C(=O)C4)CC3)cc1)C(=O)C2 (stereo not given in full)")
"3.22 µM"

====

system: SNB-75 CNS; assay: NCI tumour cell line growth inhibition, 384-well format; in the data active = GI50 below about 0.43 µM; inactive = the rest
Possible outcomes: active, inactive

>>> class_assignment("CNC(=O)c1c(C)oc2cc(Oc3ncnc4cc(OC)c(OC)cc34)ccc12")
"inactive"
>>> class_assignment("CNC(=O)c1ccc(N2C(=S)N(c3cnc(C#N)c(C(F)(F)F)c3)C(=O)C23CCC3)cc1F")
"inactive"
>>> class_assignment("CCOC(=O)C1=CCCC[C@H]1S(=O)(=O)Nc1ccc(F)cc1Cl")
"inactive"
>>> class_assignment("CC(C)C[C@H](NC(=O)CNC(=O)c1cc(Cl)ccc1Cl)B(O)O")
"active"

====

// reported GI50 for each item listed
tested on: SN12C renal; experiment: NCI tumour cell line growth inhibition, 384-well format
measured.endpoint: GI50

>>> result("CNC(=O)c1ccc(N2C(=S)N(c3cnc(C#N)c(C(F)(F)F)c3)C(=O)C23CCC3)cc1F")
"> 100000 nM"
>>> result("Cc1cc2c(C(=O)NC[C@H](C)c3ccccc3)c(O)c(O)cc2c(O)c1-c1c(C)cc2c(C(=O)NC[C@H](C)c3ccccc3)c(O)c(O)cc2c1O")
"837 nM"
>>> result("COc1cc2c(cc1OC(C)C)[C@H](c1ccc(Cl)cc1)N(c1ccc(N(C)CC3CCC(N4CCN(C)C(=O)C4)CC3)cc1)C(=O)C2 (some centres undefined)")
"1810 nM"
>>> result("CNC(=O)c1c(C)oc2cc(Oc3ncnc4cc(OC)c(OC)cc34)ccc12")
"> 100000 nM"

====

test system: HS 578T breast; test: NCI tumour cell line growth inhibition, 384-well format
// reported GI50 for each item listed
measured.endpoint: GI50

>>> result("CN[C@H]1CN(c2ccc3c(=O)c(C(=O)O)cn(-c4nccs4)c3n2)C[C@@H]1OC")
"640 nM"
>>> result("CNC(=O)c1c(C)oc2cc(Oc3ncnc4cc(OC)c(OC)cc34)ccc12")
"25500 nM"
>>> result("CC(C)C[C@H](NC(=O)CNC(=O)c1cc(Cl)ccc1Cl)B(O)O")
"20.9 nM"
>>> result("CNC(=O)c1ccc(N2C(=S)N(c3cnc(C#N)c(C(F)(F)F)c3)C(=O)C23CCC3)cc1F")
"> 100000 nM"

====

test system: MDA-MB-435 melanoma
measured.endpoint: GI50

>>> result("Cc1cc2c(C(=O)NC[C@H](C)c3ccccc3)c(O)c(O)cc2c(O)c1-c1c(C)cc2c(C(=O)NC[C@H](C)c3ccccc3)c(O)c(O)cc2c1O")
"0.54 µM"
>>> result("CCOC(=O)C1=CCCC[C@H]1S(=O)(=O)Nc1ccc(F)cc1Cl")
"31 µM"
>>> result("COc1cc2c(cc1OC(C)C)[C@H](c1ccc(Cl)cc1)N(c1ccc(N(C)CC3CCC(N4CCN(C)C(=O)C4)CC3)cc1)C(=O)C2 (some centres undefined)")
"2.01 µM"
>>> result("CN[C@H]1CN(c2ccc3c(=O)c(C(=O)O)cn(-c4nccs4)c3n2)C[C@@H]1OC")
"3.5 µM"

Taken from PubChem BioAssay (NCI).
